# testedSystem: DCN1 (Homo sapiens, UniProt Q96GG9)
# Sequence (Q96GG9 58-259 limits assumed): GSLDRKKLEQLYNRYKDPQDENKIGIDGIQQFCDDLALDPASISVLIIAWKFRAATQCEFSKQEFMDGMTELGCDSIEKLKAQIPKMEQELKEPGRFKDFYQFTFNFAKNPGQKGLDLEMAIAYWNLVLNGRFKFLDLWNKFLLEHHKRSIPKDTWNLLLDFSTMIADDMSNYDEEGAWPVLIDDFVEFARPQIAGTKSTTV
# assayProtocol: Intact-protein mass spectrometric analysis of covalent complex formation, Method A
# Assay type: binding
# conditionLabel: 180 min (3 h) incubation, 37 °C
quantityMeasured: Percentage of the formation of covalent complex with DCN1 protein (%)
The reply should be a number in %, with the unit left off.

// known answers, use as guide
chemicalString: CCC(=O)N[C@@H](Cc1nc2ccc(C(C)C)cc2s1)C(=O)N[C@H](CNC(=O)CCl)C1CCCCC1
measuredResult: 15
--
chemicalString: C=C(CCN(C)C)C(=O)NC[C@@H](NC(=O)[C@H](Cc1nc2ccc(C(C)C)cc2s1)NC(=O)CC)C1CCCCC1
measuredResult: 50
--
chemicalString: C=C(CN(C)C)C(=O)NC[C@@H](NC(=O)[C@H](Cc1nc2ccc(C(C)C)cc2s1)NC(=O)CC)C1CCCCC1
measuredResult: 100

Req: Quick one: give measured Percentage of the formation of covalent complex with DCN1 protein for C=C(CN1CCOCC1)C(=O)NC[C@@H](NC(=O)[C@H](Cc1nc2ccc(C(C)C)cc2s1)NC(=O)CC)C1CCCCC1
Resp: 100

Req: Quick one: give measured Percentage of the formation of covalent complex with DCN1 protein for CCC(=O)N[C@@H](Cc1nc2ccc(C(C)C)cc2s1)C(=O)N[C@H](CNC(=O)/C=C/CN(C)C)C1CCCCC1
Resp: 2

Req: Quick one: give measured Percentage of the formation of covalent complex with DCN1 protein for C=C(Cn1ccnc1)C(=O)NC[C@@H](NC(=O)[C@H](Cc1nc2ccc(C(C)C)cc2s1)NC(=O)CC)C1CCCCC1
Resp: 100

Origin of values: paper PMC8113459
